Data origin: PubChem BioAssay

Recorded RAM network inhibition values for a group of molecules are listed next.
test: RAM signaling pathway blockade in yeast – S. cerevisiae, Pdr1DBD-CYC8 efflux-inhibited sensitized strain, primary screen (AID 1298);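 note: 0% = DMSO untreated cells without growth and 100% = 10 µM 1-NA-PP1 full growth; higher means more yeast growth rescued from 5-FOA killing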
condition_notes: S. cerevisiae cbk1-as DSE1-URA3 strain, 5-FOA growth OD615, 2 d; at 50 µM; stronger effect = higher value
Dear colleague, please return just the value in %, with no unit written.

Worked examples, 4 molecules total:
| molecule | unit_abbreviation | RAM network inhibition |
| --- | --- | --- |
| N#CC1=C(N)OC2=C(C(=O)CCC2)C1c1ccsc1 (configuration not stated) | % | 4.01 |
| Cc1n[nH]c(=O)nc1NCc1ccccc1 | % | 0.91 |
| COc1ccc(OC)c2sc(NC(=O)C3CC3)nc12 | % | 6.06 |
| CCN1CCN(c2cc(C)c3cc(NC(=O)c4ccncc4)ccc3n2)CC1 | % | 1.77 |

Value of measured RAM network inhibition for the entry O=C(Nc1ccncc1)c1cccs1 : 0.93

Value of measured RAM network inhibition for the entry CC1CCN(c2nc(-c3ccncc3)nc3ccccc23)CC1 : 5.56

---

test: growth suppression of PTEN-deleted HCT116, pilot screen, cell-based, HCT116 clonal line, CellTiter-Glo (AID 824);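 note: 0% = 20 µM Hyamine control and 100% = vehicle cell control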
condition_notes: 60 h, at 10 µM, stronger effect = lower value
Records with an inconclusive call do not appear.
measurement_kind: viability (%)
Dear colleague, please return just the value in %, with no unit written.

| compound | viability, % |
| --- | --- |
| O=C(Nc1nnc(-c2ccc(F)cc2)o1)c1ccco1 | 92.8 |
| O=C(CC1Oc2ccccc2NC1=O)NCc1ccccc1 (stereo unspecified) | 100 |
| COc1ccc(Cl)cc1N(CC(=O)Nc1ccc2c(c1)OCO2)S(C)(=O)=O | 89.4 |
| Cc1ccc(C)c(N2CCN(C(=O)CCc3nc4ccccc4[nH]3)CC2)c1 | 90.4 |

Value of measured viability for the entry CCCCn1c(CCNC(=O)CC)nc2ccccc21 : 101

Value of measured viability for the entry CCCC12CN3CC(CCC)(CN(C1)C3C(O)C(O)C(O)CO)C2=O (stereo unspecified) : 100

Value of measured viability for the entry CCC(C)NC(=O)C1CCC(=O)N(c2ccc3c(c2)OCO3)C1c1ccc(OC)cc1 (stereo unspecified) : 100

Value of measured viability for the entry COc1ccccc1N1CCN(C(=O)CCCCn2c(=O)[nH]c3ccsc3c2=O)CC1 : 88.5

Value of measured viability for the entry C=C(C)CSc1nnc(-c2ccc(OC)c(OC)c2)n1N : 99.2

Value of measured viability for the entry CCOc1cccc(C2c3c(oc4cc(C)c(C)cc4c3=O)C(=O)N2CCCN(C)C)c1 (stereo unspecified) : 85.9

Value of measured viability for the entry FC(F)C(F)(F)C1=CC(c2ccccc2)=NCCN1 : 85.5

---

test: RAM signaling pathway blockade in yeast – S. cerevisiae, Pdr1DBD-CYC8 efflux-inhibited sensitized strain, primary screen (AID 1298);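 note: 0% = DMSO untreated cells without growth and 100% = 10 µM 1-NA-PP1 full growth; higher means more yeast growth rescued from 5-FOA killing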
condition_notes: S. cerevisiae cbk1-as DSE1-URA3 strain, 5-FOA growth OD615, 2 d; at 50 µM; stronger effect = higher value
Recorded RAM network inhibition values for a group of compounds are listed next.
Dear colleague, please return just the value in %, with no unit written.

| compound | RAM network inhibition, % |
| --- | --- |
| O=C(NCCCN1CCOCC1)c1ccc(CS(=O)(=O)c2ccc(Br)cc2)o1 | 3.6 |

Then there is this compound:
Value of measured RAM network inhibition for the entry COc1ccc(-n2c3c(cc(C(=O)Nc4ccc5c(c4)C(=O)NC5=O)c2=O)C(=O)CCC3)cc1 : 3.06
